measured target: T1, human CCR8 (human, UniProt P51685 1-355)
T1 construct: Native CCR8 on human PBMC (CCR8+ CD3+ or CCR8+ CD4+ lymphocytes); also called chemokine (C-C motif) receptor 8
T1 sequence (P51685 whole entry): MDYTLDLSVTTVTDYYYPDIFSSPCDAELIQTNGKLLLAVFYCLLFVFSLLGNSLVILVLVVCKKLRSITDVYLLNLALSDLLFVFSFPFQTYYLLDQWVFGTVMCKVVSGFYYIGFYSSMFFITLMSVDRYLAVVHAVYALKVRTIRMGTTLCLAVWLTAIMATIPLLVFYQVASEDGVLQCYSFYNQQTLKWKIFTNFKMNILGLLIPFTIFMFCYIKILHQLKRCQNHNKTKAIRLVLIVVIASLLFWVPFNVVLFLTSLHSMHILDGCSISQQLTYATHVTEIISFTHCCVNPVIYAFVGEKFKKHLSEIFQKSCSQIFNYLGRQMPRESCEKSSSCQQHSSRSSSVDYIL
assay method text: flow blocking, PBMC CCR8+CD3+; competitor PE-433H
Respond with Met for MFI values of 500 and above, Not met for values below.

Sample answers from the record:
AB5 (antibody, V domains shown, Hybridoma monoclonal; Same VH/VL entries as AB6; also called antibody 5; clone 5) VH: QVQLKESGPGLVQPSQTLSLTCTVSGFSLTSYHVSWVRQPPGKGLEWMGVIWTGGSTTYNSLLKSRLSISRDISKSQVFLKMNSLQTEDTATYYCARGGTVVKGGFAYWGQGTLVTVSS VL: DIQMTQSPASLSASLEEIVTITCQASQDIGNRLSWYQQKPGKSPQLLIYGATSLADGVPSRFSGSRSGTQYSLKISRLQVEDIGIYYCLQAYSTPLTFGSGTKLEIK :: Met
AB13 (antibody, V domains shown, Hybridoma monoclonal; also called antibody 13; clone 13) VH: EVQLVETGGGLVQPKGSLKLSCAASGFTFNAYAMNWVRQAPGKGLEWVARIRTKSNNYATYYADSVKDRFTISRDDSQTMLYLQMNNLKTEDTAMYYCVRDRATVTTGRAMDYWGQGTSVTVSS VL: DIVMTQAAPSLPVTPGESVSISCRSSKSLLHSNGNTYLYWFLQRAGQSPQLLIYRMSNLASGVPDRFSGSGSGTAFTLRISRVEAEDVGVYYCMQHLEYPFTFGSGTKLEIK :: Met
AB8 (antibody, V domains shown, Hybridoma monoclonal; also called antibody 8; clone 8) VH: AVQLVESGGGLVQPKESLKISCAASGFIFSNAAMYWVRQAPGKGLQWVARIRTKPKNYATYYIDSVKGRFTISRDDSKSMVYLQMDNLKTEDTAMYYCNTMGLTRAYYFDYWGQGVMVTVSS VL: DIQMTQSPSFLSASVGDRVTINCKASQNINRYLNWYQQKLGEAPKLLIYNANSLQTGIPSRFSGSGSGTDFTLTIRSLQPEDVATYFCLQHNSWPWTFGGGTKLELK :: Not met
AB10 (antibody, V domains shown, Hybridoma monoclonal; also called antibody 10; clone 10) VH: EVQLVETGGGLVQPKGSLKLSCAVSGFTFKTNAMNWVRQAPGKGLEWVARIRSKSNKYATYYADSVKDRFTISRDDSQSMLYLQMNNLKTEDTAMYYCVRGSEMGYYYAMDYWGQGTSVTVSS VL: DIVMTQAAPSVPVTPGESVSISCRSSKSLLHSNGNTYLYWFLQRPGQSPQLLIYRMSNLASGVPDRFSGSGSGTAFTLRISRVEAEDVGVYYCMQHLEYPFTFGGGTKLEIK :: Met

Challenge: Decide: MFI of AB6 (antibody, V domains shown, Hybridoma monoclonal; Same VH/VL entries as AB5; also called antibody 6; clone 6) VH: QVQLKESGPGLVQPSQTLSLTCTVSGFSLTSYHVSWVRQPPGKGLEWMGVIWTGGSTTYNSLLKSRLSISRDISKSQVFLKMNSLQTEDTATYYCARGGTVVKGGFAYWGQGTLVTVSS VL: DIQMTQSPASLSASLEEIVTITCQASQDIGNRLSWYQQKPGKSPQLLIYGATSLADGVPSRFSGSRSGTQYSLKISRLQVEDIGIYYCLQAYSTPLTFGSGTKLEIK >= 500?
Response given: Met

# credit: patent US20240360228A1
